Would you mind telling me the reported AC50 of each entry?
System: S. cerevisiae expressing PfHSP40, growth rescue, plate reader
Test protocol: Yeast growth rescue from Plasmodium falciparum HSP40 toxicity, dose response confirmatory, plate reader (AID 540271);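 note: yeast growth read after three days of incubation at 30 °C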

Query for S. cerevisiae expressing PfHSP40, growth rescue, plate reader: what AC50 does the record show for O=C(Sc1cccc2cccnc12)c1ccccc1Br ?
6.63 µM

Can you check O=C(NC1=CC(=O)c2ccccc2C1=O)c1ccccc1 next?
7.77 µM

Can you check CC(/C=N/n1c(COc2ccccc2)n[nH]c1=S)=C\c1ccccc1 next?
4.55 µM

Can you check CCOc1ccc(-n2c(O)c(/C=N/NC(=O)C3COc4ccccc4O3)c3ccccc3c2=O)cc1 (stereo unspecified) next?
4.11 µM

Can you check O=C(NC(=S)N(CCc1ccccc1)CCc1ccccc1)c1ccco1 next?
5.34 µM

Can you check Cc1ccsc1/C=C/c1ccc2cccc(O)c2n1 next?
3.48 µM

Can you check CC(C)C(=O)NC(c1ccco1)c1ccc2cccnc2c1O (stereo unspecified) next?
4.51 µM

Can you check Cc1ccccc1OCC(O)Cn1c2ccccc2c2ccccc21 (stereo unspecified) next?
4.74 µM

Can you check O=C(Nc1nc(-c2ccccn2)cs1)c1ccc(Br)s1 next?
0.584 µM

Can you check C(=N\Nc1nncc2ccccc12)/c1ccccn1 next?
4.74 µM

Can you check O=c1[nH]c(=O)n(C2OC(CO)C(O)C2O)cc1F (stereo unspecified) next?
5.04 µM

Can you check Oc1ccccc1-c1cc(-c2ccc3c(c2)OCCO3)n[nH]1 next?
5.24 µM

Can you check O=c1c(Cl)c(Cl)cnn1Cc1nnc(-c2ccc(Cl)cc2)o1 next?
7.45 µM

Can you check CCn1c2ccc(C)cc2c2nc3cc(C(=O)O)ccc3nc21 next?
2.57 µM

Can you check c1ccc(-c2ccc(OCCCn3cncn3)cc2)cc1 next?
5.48 µM

Can you check COc1cc2c(c(OC)c1OC)-c1ccc(O)c(=O)cc1[C@@H](NC(C)=O)CC2 next?
1.87 µM

Can you check O=C(NNC(=O)c1cc(Cl)ccc1O)c1cccc(S(=O)(=O)N2CCOCC2)c1 next?
5.28 µM

Can you check CC(=O)NC(c1cccc([N+](=O)[O-])c1)c1ccc2cccnc2c1O (stereo unspecified) next?
3.95 µM

Can you check S=C(NCCCc1ccccc1)Nc1ccccc1Cl next?
9.44 µM

Can you check CCn1nc(/C=C/c2ccccc2)nc2c(=O)n(C)c(=O)nc1-2 next?
2.36 µM

Can you check CCc1ccc(NC(=O)CSc2ccc(-c3ccccn3)nn2)cc1 next?
2.44 µM

Can you check CSc1nccc(NC(=O)c2ccc(C(C)(C)C)cc2)n1 next?
5.08 µM

Can you check Cc1c(C(=O)O)cccc1-c1ccc(/C=N/Nc2ccc(Br)cc2)o1 next?
6.31 µM

Can you check CCCCOC(=O)/C=C/c1ccc(OC(=O)OC)c(OC(=O)OC)c1 next?
5.54 µM

Can you check COc1cc(/C=N/O)cc(Br)c1OCc1cccc(Cl)c1 next?
5.31 µM

Can you check O=C(C=Cc1cccc(O)c1)c1ccccc1O next?
2.1 µM

Can you check Cc1ccc(Sc2ccc(NC(=O)CCl)cc2)cc1C next?
4.54 µM

Can you check O=C(NNC(=O)c1cc(Cl)ccc1O)c1ccc(NS(=O)(=O)c2cccs2)cc1 next?
5.61 µM

Can you check O=C(C1=C(Nc2ccccc2)c2ccccc2S(=O)(=O)N1)c1ccccc1 next?
5.09 µM

Can you check CCCCCCCCCCOC(=O)Cn1c(COc2ccccc2OC)[n+](C)c2ccccc21 next?
6.39 µM

Can you check N#C/C(=C\c1cccc(Oc2ccccc2)c1)C(=O)N1CCOCC1 next?
5.91 µM

Can you check O=C1c2ccccc2NC(c2ccc(-c3cccc([N+](=O)[O-])c3)o2)N1O (stereo unspecified) next?
4.69 µM

Can you check Cc1ccc(C(=O)C(SC(C)(C)C)n2cncn2)cc1 (stereo unspecified) next?
5.78 µM

Can you check CCC1=NN(C(=O)c2cccc(Br)c2)C(O)(c2ccc(Br)cc2)C1 (stereo unspecified) next?
5.92 µM

Can you check O=C1CC(O)(C(F)(F)F)Oc2c1ccc1ccccc21 (stereo unspecified) next?
5.78 µM

Can you check C=CCc1ccc(O)c(-c2ccc(O)c(CC=C)c2)c1 next?
4.8 µM

Can you check CCN(CC)c1ccc(/C=N/NC(=O)c2c(Cl)cnn2C)c(O)c1 next?
4.78 µM

Can you check O=C1c2ccccc2C(=O)c2c1oc(C(F)(F)F)c2C(=O)c1ccccc1 next?
1 µM

Can you check Cc1ccc(NS(=O)(=O)c2ccc(N3CCN(c4ccc(O)cc4)CC3)c([N+](=O)[O-])c2)c(C)c1 next?
7.43 µM

Can you check FC(F)(F)c1cccc(N2CCc3cn[nH]c32)c1 next?
0.446 µM

Can you check O=[N+]([O-])c1ccc(S(=O)(=O)c2ccccc2)nc1 next?
2.23 µM

Can you check Oc1ccc(-c2nc3ccccc3s2)c(O)c1 next?
7.43 µM

Can you check CC(=O)C1=C(c2cccc([N+](=O)[O-])c2)N(C(C)=O)n2c(C)nnc2S1 next?
2.7 µM

Can you check O=C(Nc1ccc(C2=NCCN2)cc1)c1ccc(C(=O)Nc2ccc(C3=NCCN3)cc2)c(Cl)c1 next?
4.17 µM

Can you check O=C(CSc1ccc(-c2ccccn2)nn1)NCc1ccc(F)cc1 next?
4.86 µM

Can you check CC(C)=CCc1c(O)cc(O)c2c1OC(c1ccc(O)cc1)CC2=O (stereo unspecified) next?
5.76 µM
